pEC50 by entry:
# measuredOn: MCR4 (Homo sapiens, UniProt P32245)
# Construct: expressed in transfected cells; host or cells: CHO (CHO-MCR4)
# Sequence (P32245 whole entry): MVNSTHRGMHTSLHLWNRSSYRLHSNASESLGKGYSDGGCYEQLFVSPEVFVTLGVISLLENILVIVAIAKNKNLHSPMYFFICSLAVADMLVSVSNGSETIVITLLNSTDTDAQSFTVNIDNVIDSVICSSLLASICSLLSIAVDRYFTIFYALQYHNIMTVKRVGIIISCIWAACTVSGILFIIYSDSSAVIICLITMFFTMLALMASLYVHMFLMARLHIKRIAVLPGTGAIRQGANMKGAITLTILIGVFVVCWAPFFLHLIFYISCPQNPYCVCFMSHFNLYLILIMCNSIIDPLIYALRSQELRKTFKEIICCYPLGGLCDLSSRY
# measurementDescription: cAMP production (LANCE cAMP assay) in CHO-MCR4 cells
# Type: cell-based
# protocolConditions: Cell Pool B (partially enriched for MCR expression)
pEC50: −log10 of the molar value. Square brackets hold non-standard residues; d marks the D form. Ends that are not written are not given here. Nle = CCCC[C@H](N)C(=O)O

Known pEC50 results, listed for orientation:
SYSMEHFRWGKPVGKKRRPVKVYPPLPEGGPEPRSDGAKPGPREGKRSYS[Nle]EH[dF]RWGKPV [compound 39]: 8.80
YVMGHFRWDRFGRRNSSSSGSSGAGQKR [compound 9]: < 7.00
SYSMEHFRWGKPVGKKRRPVKVYPPLPEGGPEPRSDGAKPGPREGKRSYSMEHFRWGKPV [compound 42]: < 7.70

We now examine a further substance.
IN: Fill in the blank: the reported pEC50 of SYSMEHFRWGKPVGKKRRPVKVYPELTGQRLREGDGPDGPADDGAGASYSMEHFRWGKPV [compound 43] is ____.
OUT: < 7.70

----------
# measuredOn: MCR2 (Homo sapiens)
# Construct: expressed in transfected cells; host or cells: CHO (CHO-MCR2)
# Sequence (Q01718 whole entry): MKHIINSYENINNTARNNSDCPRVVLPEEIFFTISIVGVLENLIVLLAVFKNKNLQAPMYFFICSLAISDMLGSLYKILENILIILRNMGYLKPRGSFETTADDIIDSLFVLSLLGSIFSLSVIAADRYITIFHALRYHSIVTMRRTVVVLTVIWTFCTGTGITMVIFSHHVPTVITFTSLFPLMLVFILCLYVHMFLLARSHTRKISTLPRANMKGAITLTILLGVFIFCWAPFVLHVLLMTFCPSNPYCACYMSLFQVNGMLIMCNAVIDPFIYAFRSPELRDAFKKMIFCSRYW
# Sequence (Q8TCY5 whole entry partner): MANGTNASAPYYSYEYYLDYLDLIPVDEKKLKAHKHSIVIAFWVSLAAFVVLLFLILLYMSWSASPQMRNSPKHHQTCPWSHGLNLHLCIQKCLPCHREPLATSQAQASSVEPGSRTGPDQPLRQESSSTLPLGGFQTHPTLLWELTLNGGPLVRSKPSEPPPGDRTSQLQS
# measurementDescription: cAMP production (LANCE cAMP assay) in CHO-MCR2 cells
# Assay type: cell-based
# protocolConditions: Cell Pool B (partially enriched for MCR expression)
pEC50: −log10 of the molar value. Square brackets hold non-standard residues; d marks the D form. Ends that are not written are not given here. Nle = CCCC[C@H](N)C(=O)O
recordedEndpoint: pEC50

SYSMEHFRWGKPVGKKRRPVKVYPELTGQRLREGDGPDGPADDGAGASYSMEHFRWGKPV [compound 43]: 9.74
SYSMEHFRWGKPVGKKRRPVKVYPELTGQRLREGDGPDGPADDGAGASYS[Nle]EH[dF]RWGKPV [compound 40]: 9.82
SYSMEHFRWGKPVGKKRRPVKVYPPLPEGGPEPRSDGAKPGPREGKRSYS[Nle]EH[dF]RWGKPV [compound 39]: 9.74
SYSMEHFRWGKPVGKKRRPVKVYPPLPEGGPEPRSDGAKPGPREGKRSYSMEHFRWGKPV [compound 42]: 9.82

----------
# measuredOn: MCR2 (Homo sapiens)
# Construct: expressed in transfected cells; host or cells: CHO (CHO-MCR2)
# measurementDescription: cAMP production (LANCE cAMP assay) in CHO-MCR2 cells
# Format: cell-based
# protocolConditions: Cell Pool A (partially enriched for MCR expression)
Ends that are not written are not given here.
recordedEndpoint: EC50 (nM)

A. YVMGHFRWDRFGSYSMEHFRWGKPVGKKRRPVKVYP [compound 15]
B. YVMGHFRWDRFGKRSYSMEHFRWGKPVGKKRRPVKVYP [compound 1]
IN: Kindly compare A with B and tell me which has the lower EC50 figure. Please reply using the label of the selected record.
OUT: A
